- Tested on: Rote Blutkörperchen
- test-name: Red blood cell test (RBC test): lysis of blood cells and denaturation of released haemoglobin
- Assay type: cell-based
- measurement-parameters: Table 1: single fatty acid amidopropyl betaines
readout-type: Lyse (L)

Examples from the recorded data:
CCCCCCCCCCCCCCCC(=O)NCCC[N+](C)(C)CC(=O)[O-]	4,4
CCCCCCCCCCCCCC(=O)NCCC[N+](C)(C)CC(=O)[O-]	13
CCCCCCCC(=O)NCCC[N+](C)(C)CC(=O)[O-]	keine Hämolyse
CCCCCCCCCCCC(=O)NCCC[N+](C)(C)CC(=O)[O-]	151

Consider the record given below.
The compound identified as `CCCCCCCCCC(=O)NCCC[N+](C)(C)CC(=O)[O-]` registered its Lyse (L) at keine Hämolyse

###

I'd be grateful if you could share measured L/D for these entries.
- Test system: Rote Blutkörperchen
- test-name: Red blood cell test (RBC test): lysis of blood cells and denaturation of released haemoglobin
- Assay type: cell-based
- measurement-parameters: Table 1: single betaines; the smaller L/D, the more irritant

Examples from the recorded data:
CCCCCCCC(=O)NCCC[N+](C)(C)CC(=O)[O-]	>> 100
CCCCCCCCCCCC(=O)NCCC[N+](C)(C)CC(=O)[O-]	8,9
CCCCCCCCCCCCCCCC(=O)NCCC[N+](C)(C)CC(=O)[O-]	1,0

Give L/D for each listed item.
1. CCCCCCCCCC(=O)NCCC[N+](C)(C)CC(=O)[O-]
2. CCCCCCCCCCCCCC(=O)NCCC[N+](C)(C)CC(=O)[O-]

Result:
1. >> 100
2. 1,4

###

- Test system: Rote Blutkörperchen
- test-name: Red blood cell test (RBC test): lysis of blood cells and denaturation of released haemoglobin
- Assay type: cell-based
- measurement-parameters: Table 1: single fatty acid amidopropyl betaines
- Source text: Fettsäureamidopropylbetaine, abgeleitet von Fettsäuren unterschiedlicher Kettenlängen, werden mit Hilfe einer in-vitro-Methode, dem Rote-Blutkörperchen-Test (RBC), auf ihre physiologische Verträglichkeit untersucht. Hierbei werden zur Charakterisierung der typischen irritativen Wechselbeziehung von Tensiden mit intakten Zellstrukturen die Zerstörung der Blutzellen durch Lyse und die Denaturierung des freigesetzten Hämoglobins gemessen. […]
readout-type: Denaturierung (D)

Examples from the recorded data:
CCCCCCCC(=O)NCCC[N+](C)(C)CC(=O)[O-] [C8-Betain]	keine Hämolyse
CCCCCCCCCCCCCC(=O)NCCC[N+](C)(C)CC(=O)[O-] [C14-Betain]	9,2
CCCCCCCCCC(=O)NCCC[N+](C)(C)CC(=O)[O-] [C10-Betain]	keine Hämolyse
CCCCCCCCCCCCCCCC(=O)NCCC[N+](C)(C)CC(=O)[O-] [C16-Betain]	4,4

Consider the record given below.
The compound identified as CCCCCCCCCCCC(=O)NCCC[N+](C)(C)CC(=O)[O-] [C12-Betain] registered its Denaturierung (D) at 17
